# measurement_target: T1, CDH6 on the cell surface of OVCAR-3 cells (human ovarian cancer cells) (human, UniProt P55285 54-790)
# T1 construct: whole, on cells; also called CDH6-positive human ovarian cancer cell line OVCAR-3
# T1 sequence (looked up): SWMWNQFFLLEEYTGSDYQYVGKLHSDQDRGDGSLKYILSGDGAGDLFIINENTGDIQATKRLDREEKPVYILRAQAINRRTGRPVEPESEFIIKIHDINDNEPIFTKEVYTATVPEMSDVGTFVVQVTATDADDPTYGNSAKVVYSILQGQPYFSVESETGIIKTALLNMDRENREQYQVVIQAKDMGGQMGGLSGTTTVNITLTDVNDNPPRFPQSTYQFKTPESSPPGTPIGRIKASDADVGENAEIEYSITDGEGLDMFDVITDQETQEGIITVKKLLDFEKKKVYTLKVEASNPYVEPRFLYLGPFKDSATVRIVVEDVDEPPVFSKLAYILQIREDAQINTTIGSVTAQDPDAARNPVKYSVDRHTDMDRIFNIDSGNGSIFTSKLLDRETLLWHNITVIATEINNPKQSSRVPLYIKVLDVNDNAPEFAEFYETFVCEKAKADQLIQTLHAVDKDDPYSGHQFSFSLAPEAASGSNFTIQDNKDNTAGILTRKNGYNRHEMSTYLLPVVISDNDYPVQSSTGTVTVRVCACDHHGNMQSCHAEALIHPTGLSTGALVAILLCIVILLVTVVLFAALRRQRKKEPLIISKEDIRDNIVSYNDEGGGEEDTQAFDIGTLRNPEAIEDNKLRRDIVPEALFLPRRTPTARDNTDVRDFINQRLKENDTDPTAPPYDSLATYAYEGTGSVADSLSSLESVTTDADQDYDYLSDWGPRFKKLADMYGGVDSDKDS
# procedure_details: flow cytometry (FACS) on OVCAR-3 cells, antibody titration, labelled secondary antibody, MFI
Provide the recorded EC50 (read off the curve) for the entries that follow.

CL069707-H2L1 (antibody, human IgG1, kappa, V domains shown, Humanized IgG1/kappa, produced in 293 cells) VH: EVQLVESGGGLVQPGGSLRLSCAASGFTFTTYAMNWVRQAPGKGLEWVGRIRIKNNNYATYYADSVTDRFTISRDDSKNSLYLQMNSLKTEDTAVYYCVRPDYGNYGLAYWGQGTLVTVSS VL: DIQLTQSPSSLSASVGDRVTITCSASSSISSHYLHWYQQKPGKSPKLLIYRSFYLASGVPSRFSGSGSGTDFTLTISSLQPEDFATYYCQQDIVPLTFGQGTKLEIKR; ~1 nM
CL069707-H2L2 (antibody, human IgG1, kappa, V domains shown, Humanized IgG1/kappa, produced in 293 cells) VH: EVQLVESGGGLVQPGGSLRLSCAASGFTFTTYAMNWVRQAPGKGLEWVGRIRIKNNNYATYYADSVTDRFTISRDDSKNSLYLQMNSLKTEDTAVYYCVRPDYGNYGLAYWGQGTLVTVSS VL: DIQLTQSPSSLSASVGDRVTITCSASSSISSHYLHWYQQKPGKSPKLLIYRSFYLASGVPLRFSGSGSGTDFTLTISSLQPEDFATYYCQQDIVPLTFGQGTKLEIKR; ~1 nM
CL069707-H1L1 (antibody, human IgG1, kappa, V domains shown, Humanized IgG1/kappa, produced in 293 cells; also called humanized CL069707-H1L1) VH: EVQLVESGGGLVQPGGSLRLSCAASGFTFTTYAMNWVRQAPGKGLEWVARIRIKNNNYATYYADSVTDRFTISRDDSKNSLYLQMNSLKTEDTAVYYCVRPDYGNYGLAYWGQGTLVTVSS VL: DIQLTQSPSSLSASVGDRVTITCSASSSISSHYLHWYQQKPGKSPKLLIYRSFYLASGVPSRFSGSGSGTDFTLTISSLQPEDFATYYCQQDIVPLTFGQGTKLEIKR; ~1 nM
CL069707-H1L2 (antibody, human IgG1, kappa, V domains shown, Humanized IgG1/kappa, produced in 293 cells) VH: EVQLVESGGGLVQPGGSLRLSCAASGFTFTTYAMNWVRQAPGKGLEWVARIRIKNNNYATYYADSVTDRFTISRDDSKNSLYLQMNSLKTEDTAVYYCVRPDYGNYGLAYWGQGTLVTVSS VL: DIQLTQSPSSLSASVGDRVTITCSASSSISSHYLHWYQQKPGKSPKLLIYRSFYLASGVPLRFSGSGSGTDFTLTISSLQPEDFATYYCQQDIVPLTFGQGTKLEIKR; ~1 nM

Kindly review the next binder as well.
Enquiry: What value of EC50 (read off the curve) has been recorded for this entry: Ch069707 (antibody, human IgG1, kappa, V domains shown, also called anti-CDH6 chimeric antibody Ch069707) VH: EVHLVESGGGLVQPKGSLKLSCVASGFTFTTYAMNWVRQAPGKGLEWVARIRIKNNNYATYYADSVTDRFTISRDDSQSMLYLQMNNLKTEDTAMYYCVRPDYGNYGLAYWGQGTLVTVSA VL: EIVLTQSPTTMAASPGEKITITCSASSSISSHYLHWYQQKPGFSPKLLIYRSFYLASGVPLRFTGSGSGTSYSLTIGTMEAEDVATYYCQQDIVPLTFGAGTKLELKR
Return: ~0.7 nM

These data points were gathered from patent US20250090677A1.
